- measurement_protocol: Substrate specificities of KAZ mutants (ZZ-fused, crude enzyme), h-CTZ
- Assay type: biochemical
- measurement_setup: 1 μg substrate, maximum intensity of luminescence
Relative Luminescence Activity h-CTZ Imax values, listed per item

{"columns": ["molecule", "readout_value"],
 "data": [
  ["KAZ: wild 19 kDa catalytic protein of Oplophorus luciferase (19kOLase), amino acid sequence SEQ ID NO: 2 (protein, listed as Oplophorus gracilirostris) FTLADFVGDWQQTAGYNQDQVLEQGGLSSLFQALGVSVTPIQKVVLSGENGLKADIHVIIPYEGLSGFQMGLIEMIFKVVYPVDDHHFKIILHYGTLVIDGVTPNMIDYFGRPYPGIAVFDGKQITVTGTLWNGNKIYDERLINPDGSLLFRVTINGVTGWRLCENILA", 1.1],
  ["KAZ-Y138I: KAZ with single amino acid substitution Y138I, SEQ ID NO: 8 (protein) FTLADFVGDWQQTAGYNQDQVLEQGGLSSLFQALGVSVTPIQKVVLSGENGLKADIHVIIPYEGLSGFQMGLIEMIFKVVYPVDDHHFKIILHYGTLVIDGVTPNMIDYFGRPYPGIAVFDGKQITVTGTLWNGNKIIDERLINPDGSLLFRVTINGVTGWRLCENILA", 3.9]
]}

Field Relative Luminescence Activity h-CTZ Imax (entry KAZ-V44I-A54I-Y138I: KAZ mutant with three amino acid substitutions V44I, A54I and Y138I, SEQ ID NO: 16 (protein) FTLADFVGDWQQTAGYNQDQVLEQGGLSSLFQALGVSVTPIQKIVLSGENGLKIDIHVIIPYEGLSGFQMGLIEMIFKVVYPVDDHHFKIILHYGTLVIDGVTPNMIDYFGRPYPGIAVFDGKQITVTGTLWNGNKIIDERLINPDGSLLFRVTINGVTGWRLCENILA ) reads 83.1
